Provide the recorded IC50 for the entries that follow.
# TARGET OF ASSAY: GDP-bound KRAS protein (aa 1-169), containing both G12D and C118A amino acid substitutions (Homo sapiens, UniProt P01116, C118A/G12D)
# Sequence (P01116 1-169 isoform P01116-2 G12D/C118A): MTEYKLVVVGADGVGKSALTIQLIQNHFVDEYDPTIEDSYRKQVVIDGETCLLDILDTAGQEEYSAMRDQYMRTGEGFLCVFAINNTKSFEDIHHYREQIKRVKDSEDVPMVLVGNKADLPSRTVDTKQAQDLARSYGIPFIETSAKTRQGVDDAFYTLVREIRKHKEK
# METHOD DESCRIPTION: KRAS G12D Coupled Nucleotide Exchange Assay
# Assay type: biochemical
Write it as a number; the unit nM goes unstated.

Task: Fill in IC50 for record CCc1c(F)ccc2cc(O)cc(-c3c(F)cc4c(N5CCCC(O)(C(F)F)C5)nc(OC[C@@]56CCCN5C[C@H](F)C6)nc4c3F)c12 (single isomer, unassigned) [Example 22]
Result: 58

Task: Return reported IC50. Input compound: C#Cc1c(F)ccc2cc(O)cc(-c3ccc4c(N5CCC[C@@](C)(O)C5)nc(OC[C@@]56CCCN5C[C@H](F)C6)nc4c3F)c12 [Example 47]
Result: 4

Task: Indicate its recorded IC50; the compound in question is CCc1c(F)ccc2cc(N)cc(-c3c(F)cc4c(N5CCC[C@@](C)(O)C5)nc(OC[C@@]56CCCN5C[C@H](F)C6)nc4c3F)c12 (single isomer, unassigned) [Example 62]
Result: 2

Task: Provide IC50 value for the following compound: Oc1cc(-c2ccc3c(N4CCCOCC4)nc(OC[C@@]45CCCN4C[C@H](F)C5)nc3c2F)c2ccccc2c1 [Example 42]
Result: 14

Task: Please list IC50 recorded for the compound CCc1c(F)ccc2cc(O)cc(-c3ccc4c(N5CCC[C@]6(C5)C[C@@H](O)C6)nc(OC[C@@]56CCCN5C[C@H](F)C6)nc4c3F)c12 [Example 87]
Result: 3

Task: For the compound CCc1c(F)ccc2cc(O)cc(-c3c(F)cc4c(N5CCCC6(CNC(=O)O6)C5)nc(OC[C@@]56CCCN5C[C@H](F)C6)nc4c3F)c12 (single isomer, unassigned) [Example 57] , report IC50.
Result: 87
